tested_target: DLG4_3, P78352
Sequence (P78352 306-403): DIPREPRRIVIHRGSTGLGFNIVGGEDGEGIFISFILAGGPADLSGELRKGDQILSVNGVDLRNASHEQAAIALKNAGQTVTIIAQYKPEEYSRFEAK
experimental_details: holdup assay
Design: key: below the threshold = too weak to quantify, mostly under pKd 3.1 to 4
experimental_parameters: plain residues with an end cap or a label only (N-terminal biotin on a linker: ttds)
Listed here: items and their measured pKd.
measure_name: pKd

> print(dat)
                         binder  measure.name  measured.result
1   VLRLQSETSV [VANGL1, Q8TAA9]           pKd             4.51
2  SVWLRKETRV [CYSLTR2, Q9NS75]           pKd             6.55
3    STLTIFETAL [ABCC4, O15439]           pKd             3.85
